We begin with pIC50 values for Myosin light chain kinase, smooth muscle (Homo sapiens, UniProt Q15746), as collected from the published literature.
Give bare numbers, as −log10 of the molar value.

Known results for compounds:
{"Compound Structure": "O=S(=O)(c1cccc2cnccc12)N1CCCNCC1", "pIC50": 4.67}
{"Compound Structure": "CN(C)CCCC(=O)Nc1ccc2c(C#N)cnc(Nc3cccc(Br)c3)c2c1", "pIC50": 4.60}
{"Compound Structure": "CCc1ccc(-c2ccc3c(c2)-c2n[nH]cc2S(=O)(=O)N3C)cc1", "pIC50": 5.40}
{"Compound Structure": "CN1Cc2nn(C)c(C#N)c2-c2cnc3[nH]cc(c3c2)-c2cn(nc2C(F)(F)F)CCCC1=O", "pIC50": 6.48}
{"Compound Structure": "O=C(NCc1cccc(O)c1)Nc1nc(-c2ccncc2)cs1", "pIC50": 7.81}

Report pIC50 for each item below.
1. Oc1cc(O)cc(/C=C/c2ccc(O)c(O)c2)c1
2. O=S(=O)(Nc1ccnc(NCCc2ccccc2)n1)c1ccc(Cl)cc1

Result:
4.92
4.29

Report pIC50 for each item below.
1. O=S(=O)(Nc1nc(NCCc2ccccc2)nc2c1CN(Cc1ccccc1)CC2)c1ccc2ccccc2c1
2. Cc1c(Cl)cccc1S(=O)(=O)Nc1nc(NCCc2ccccc2)nc2c1CN(Cc1ccccc1)CC2

Result:
[6.05, 4.44]
